STUDY TARGET: 5-hydroxytryptamine receptor 1A (Homo sapiens)
Sequence (P08908 whole entry): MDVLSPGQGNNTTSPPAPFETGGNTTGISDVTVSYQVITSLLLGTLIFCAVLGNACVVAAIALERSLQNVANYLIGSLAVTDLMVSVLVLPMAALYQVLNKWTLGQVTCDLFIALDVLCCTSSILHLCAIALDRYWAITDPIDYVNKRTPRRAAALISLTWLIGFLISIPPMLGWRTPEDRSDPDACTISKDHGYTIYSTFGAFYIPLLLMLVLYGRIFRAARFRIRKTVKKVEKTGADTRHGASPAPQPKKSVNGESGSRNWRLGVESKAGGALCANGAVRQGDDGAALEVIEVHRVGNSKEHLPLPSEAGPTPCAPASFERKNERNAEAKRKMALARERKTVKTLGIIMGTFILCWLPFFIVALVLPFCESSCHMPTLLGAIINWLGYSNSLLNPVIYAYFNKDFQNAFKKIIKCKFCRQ
PROTOCOL: Binding affinity towards human 5-hydroxytryptamine 1A receptor
REPORTED METRIC: pKi
Scale for pKi: -log10 of concentration given in mol/L; no unit attached.

I have this molecule here, Fc1ccc2[nH]c(CN3CCN(c4ccccn4)CC3)cc2c1 , and I need its recorded pKi.
6.70

----------
pEC50 values by entry
STUDY TARGET: D(4) dopamine receptor (Homo sapiens)
Sequence (P21917 whole entry): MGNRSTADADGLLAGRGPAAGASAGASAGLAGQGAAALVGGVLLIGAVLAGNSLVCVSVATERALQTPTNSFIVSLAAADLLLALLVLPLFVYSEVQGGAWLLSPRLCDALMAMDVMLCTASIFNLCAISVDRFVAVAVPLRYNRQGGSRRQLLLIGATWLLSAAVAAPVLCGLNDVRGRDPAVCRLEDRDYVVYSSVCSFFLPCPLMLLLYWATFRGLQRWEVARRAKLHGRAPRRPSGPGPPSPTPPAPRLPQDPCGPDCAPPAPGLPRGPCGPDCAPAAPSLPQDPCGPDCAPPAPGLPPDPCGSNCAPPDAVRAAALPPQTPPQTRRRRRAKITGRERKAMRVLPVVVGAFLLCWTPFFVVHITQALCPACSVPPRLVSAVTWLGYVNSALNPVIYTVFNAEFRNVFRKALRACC
PROTOCOL: In vitro effective concentration tested on HEK293 cells co-transfected with human D4.4 receptor using FLIPR assay
Type: cell-based
# pEC50 = -log10(concentration in molar units)

C1=C(c2ccccc2)CCN(Cc2nc3ccccc3[nH]2)C1 :: 6.64

Moving on to another compound below.
# query: pEC50 | item C1=C(c2ccccn2)CCN(Cc2nc3ccccc3[nH]2)C1 | system: D(4) dopamine receptor (Homo sapiens)
7.96
